target: OGFOD1 (Homo sapiens); assay: OGFOD1 inhibition assay: hydroxylation of RPS23 51-70 peptide by MALDI-TOF MS; type: biochemical; conditions: OGFOD1 1 μM (Figure 3B)
parameter.measured: OGFOD1 inhibition in fragment-based screening, in words

> print(dat)
                                   molecule            result
1             CC(=O)c1c(O)n(C)c(=O)n(C)c1=O  improved potency
2       CC(=O)C1CCCCC1=O (stereo not drawn)   poor inhibitors
3  CCOC(=O)CC(=O)OCC [compound 10, diethyl malonate]   poor inhibitors
4             CC(=O)c1c(O)[nH]c(=O)[nH]c1=O  improved potency

----------
parameter.measured: melting point (°C)

> print(dat)
                                   compound  parameter.measured  quantitative.result
1  Cn1c(O)c(C(=O)CCc2cccs2)c(=O)n(C)c1=O [compound 42]       melting point                   91
2    Cn1c(O)c(C(=O)CCC2CCCCC2)c(=O)n(C)c1=O       melting point                   58
3  CC(CC(=O)c1c(O)n(C)c(=O)n(C)c1=O)c1ccccc1 (stereo not shown)       melting point                  100
4  Cn1c(O)c(C(=O)C2Cc3ccccc3C2)c(=O)n(C)c1=O       melting point                  120
5  Cc1ccc(CCC(=O)c2c(O)n(C)c(=O)n(C)c2=O)cc1       melting point                  140
6  Cc1cccc(CCC(=O)c2c(O)n(C)c(=O)n(C)c2=O)c1       melting point                  131
7  Cn1c(O)c(C(=O)[C@H]2C[C@H]2c2ccccc2)c(=O)n(C)c1=O       melting point                  111

----------
biological target: OGFOD1 (Homo sapiens, UniProt Q8N543); test: OGFOD1 inhibition assay: hydroxylation of RPS23 51-70 peptide by MALDI-TOF MS; assay type: biochemical; settings: OGFOD1 1 µM; inhibitors at 100, 20, 5, 1 µM (Figure S9) or 5 and 1 µM (Figure S10)
Sequence (Q8N543 whole entry, the tested form may be a part): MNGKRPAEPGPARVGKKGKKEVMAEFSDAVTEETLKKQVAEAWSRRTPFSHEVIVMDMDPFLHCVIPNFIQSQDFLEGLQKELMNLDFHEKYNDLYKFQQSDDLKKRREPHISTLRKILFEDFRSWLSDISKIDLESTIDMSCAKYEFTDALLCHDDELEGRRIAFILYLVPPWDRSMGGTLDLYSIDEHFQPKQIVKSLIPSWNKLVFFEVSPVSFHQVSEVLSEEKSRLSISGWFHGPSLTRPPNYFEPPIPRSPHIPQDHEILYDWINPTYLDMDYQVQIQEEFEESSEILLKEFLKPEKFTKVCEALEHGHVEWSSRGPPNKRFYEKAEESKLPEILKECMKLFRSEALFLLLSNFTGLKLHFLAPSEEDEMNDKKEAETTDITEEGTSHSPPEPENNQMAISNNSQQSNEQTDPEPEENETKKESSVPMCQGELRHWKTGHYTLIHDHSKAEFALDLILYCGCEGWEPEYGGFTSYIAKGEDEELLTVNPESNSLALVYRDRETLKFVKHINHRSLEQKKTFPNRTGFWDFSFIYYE
parameter.measured: relative potency of OGFOD1 inhibition in barbiturate SAR, in words

> print(dat)
                                   compound               result
1  O=C(CCC1CCCC1)c1c(O)n(C2CCCCC2)c(=O)n(C2CCCCC2)c1=O [compound 31]  less potent than 29
2  CCn1c(O)c(C(=O)CCC2CCCC2)c(=O)n(CC)c1=O [compound 30]  less potent than 29

----------
Biological target: NO66 (Homo sapiens, UniProt Q9H6W3)
Sequence (Q9H6W3 116-641 limits assumed): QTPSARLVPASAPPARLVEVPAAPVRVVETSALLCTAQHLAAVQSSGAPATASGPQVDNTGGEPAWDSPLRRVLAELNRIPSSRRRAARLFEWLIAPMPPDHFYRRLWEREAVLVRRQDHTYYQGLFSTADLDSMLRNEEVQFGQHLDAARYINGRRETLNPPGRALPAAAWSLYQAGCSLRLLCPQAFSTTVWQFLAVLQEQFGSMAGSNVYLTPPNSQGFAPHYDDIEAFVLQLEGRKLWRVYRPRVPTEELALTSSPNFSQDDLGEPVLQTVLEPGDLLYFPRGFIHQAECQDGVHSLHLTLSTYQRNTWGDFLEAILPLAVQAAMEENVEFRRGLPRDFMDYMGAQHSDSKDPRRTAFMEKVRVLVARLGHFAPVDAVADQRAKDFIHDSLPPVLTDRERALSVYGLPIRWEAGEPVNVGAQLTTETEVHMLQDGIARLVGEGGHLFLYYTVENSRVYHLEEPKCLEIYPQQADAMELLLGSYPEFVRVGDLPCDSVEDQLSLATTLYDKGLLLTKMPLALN
parameter.measured: IC50

> print(dat)
                          chemical.string                    system.under.test    result
1   Cn1c(O)c(C(=O)CCc2cccs2)c(=O)n(C)c1=O  NO66 (Homo sapiens, UniProt Q9H6W3)  > 100 µM
2  Cn1c(O)c(C(=O)CCc2ccccc2)c(=O)n(C)c1=O  NO66 (Homo sapiens, UniProt Q9H6W3)  > 100 µM
